System: Plasmodium berghei
Method: Antimalarial activity against Plasmodium berghei ANKA infected in mouse assessed as parasitemia at 48.4 microM/Kg,po measured after 96 hrs by giemsa staining analysis relative to control
Assay type: functional
Condition Parameters: at 48.4 µmol/kg
Quantity Kind: Activity

{"columns": ["Structure", "Observed Measurement"],
 "data": [
  ["COc1ccccc1-c1c2c([nH]c(=O)c1C#N)-c1ccccc1CC2", "42%"],
  ["N#Cc1c(-c2ccccc2Br)c2c([nH]c1=O)-c1ccccc1CC2", "36%"],
  ["COc1cc(-c2c3c([nH]c(=O)c2C#N)-c2ccccc2CC3)ccc1O", "2%"],
  ["N#Cc1c(-c2cccs2)c2c([nH]c1=O)-c1ccccc1CC2", "2%"],
  ["CC(=O)N1CCC(C(=O)NCc2ccc3c(c2)-c2[nH]c(=O)c(C#N)c(-c4cc(C(F)(F)F)ccc4Cl)c2CC3)CC1", "56%"]
]}

Where do these numbers come from? They come from ChEMBL document CHEMBL5620375.
